Give fold resistance (FR), strain S for every item shown.
System: virus strain S (R13080)
Procedure Text: microbe, parasite or virus in culture
Assay type: cell-based, HIV
Assay Conditions: FR=EC50(mutant strain)/EC50(HIV-1 strain LAI); strain S
Numbers only.

Sample answers from the record:
CC(C)CN(C[C@@H](O)[C@H](Cc1ccccc1)NC(=O)OCc1cccnc1)S(=O)(=O)c1ccc2nc(NCCN(C)C)sc2c1 ... 11.9
Cc1c(N)cccc1C(=O)N[C@@H](Cc1ccccc1)[C@H](O)CN(CC(C)C)S(=O)(=O)c1ccc2nc(NC(=O)CN3CCN(C)CC3)sc2c1.O=C(O)C(F)(F)F ... 5.6
CC(=O)N(C)c1nc2ccc(S(=O)(=O)N(CC(C)C)C[C@@H](O)[C@H](Cc3ccccc3)NC(=O)OCc3cncs3)cc2s1 ... 26.6
CC(=O)N(C)c1nc2ccc(S(=O)(=O)N(CC(C)C)C[C@@H](O)[C@H](Cc3ccccc3)NC(=O)c3cccc(N)c3C)cc2s1 ... 17.9

Next item in the queue.
Data request: Consider the molecule CC(C)CN(C[C@@H](O)[C@H](Cc1ccccc1)NC(=O)OCc1cncs1)S(=O)(=O)c1ccc2nc(NCCN(C)C)sc2c1 tested on virus strain S (R13080); state its fold resistance (FR), strain S.
Data returned: 13.8
